Test system: Escherichia coli TOP10;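 note: peptides expressed intracellularly from a pBAD plasmid library in pooled LB shake-flask culture, induced with 0.3% L-arabinose, DNA abundance read by NGS, three biological replicates, DESeq2 with apeglm shrinkage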
Assay: shrunken log2 fold change of peptide-encoding DNA abundance (4.5 h post-induction vs induction); higher = less antimicrobial activity (less host growth inhibition)
Conditions: time post-induction: 4.5 h; library: site-saturation at positions 5, 18, 19, 20
Given measured shrunken log2 fold change, output yes if it is greater than or equal to -0.2 and no if not.

Examples from the recorded data:
> print(dat)
           sequence.string  answer.label
1  RRIRYRPPRLPRPRPRPHSYPRP           yes
2  RRIRLRPPRLPRPRPRPGCNPRP           yes
3  RRIRRRPPRLPRPRPRPLLKPRP           yes
4  RRIRWRPPRLPRPRPRPQPDPRP           yes
5  RRIRFRPPRLPRPRPRPLFEPRP           yes

Query: Check the entry `RRIRGRPPRLPRPRPRPICVPRP` : does shrunken log2 fold change equal or exceed -0.2?
Reply: yes

Query: Exam item: decide whether the reported shrunken log2 fold change for `RRIRHRPPRLPRPRPRPTLTPRP` is at least -0.2.
Reply: yes

Query: Does shrunken log2 fold change meet or surpass -0.2 for `RRIRDRPPRLPRPRPRPCYVPRP` ?
Reply: yes

Query: Could you verify whether the entry `RRIRGRPPRLPRPRPRPKHGPRP` shows shrunken log2 fold change of no less than -0.2?
Reply: yes

Query: For this sequence, is measured shrunken log2 fold change -0.2 or higher? `RRIRARPPRLPRPRPRPKYNPRP`
Reply: no

Query: Check this sequence for shrunken log2 fold change at or above -0.2: `RRIRRRPPRLPRPRPRPHFHPRP`
Reply: no

Query: Check this sequence for shrunken log2 fold change at or above -0.2: `RRIRHRPPRLPRPRPRPPMIPRP`
Reply: yes

Query: Assess whether reported shrunken log2 fold change for `RRIRTRPPRLPRPRPRPLPSPRP` sits at -0.2 or higher.
Reply: yes

Query: Record `RRIRWRPPRLPRPRPRPGMSPRP` ; criterion: shrunken log2 fold change no lower than -0.2. Met?
Reply: yes

Query: Could you please find out whether `RRIRQRPPRLPRPRPRPQALPRP` has shrunken log2 fold change that meets -0.2 or exceeds it?
Reply: yes

Query: Check if shrunken log2 fold change >= -0.2 (inclusive). Item: `RRIRYRPPRLPRPRPRPDDLPRP`
Reply: yes

Query: Could you verify whether the entry `RRIRMRPPRLPRPRPRPNQAPRP` shows shrunken log2 fold change of no less than -0.2?
Reply: yes

Query: Quick check: does `RRIRIRPPRLPRPRPRPWNTPRP` have shrunken log2 fold change greater than or equal to -0.2?
Reply: no

Query: Identify whether the reported shrunken log2 fold change of the following sequence is -0.2 or greater: `RRIRGRPPRLPRPRPRPKNFPRP`
Reply: yes

Query: hey, is shrunken log2 fold change for this one >= -0.2? `RRIRTRPPRLPRPRPRPIWMPRP`
Reply: yes

Query: Could you please find out whether `RRIRDRPPRLPRPRPRPGEGPRP` has shrunken log2 fold change that meets -0.2 or exceeds it?
Reply: yes

Query: Please tell me: is the sequence `RRIRPRPPRLPRPRPRPTRQPRP` at or over -0.2 in terms of shrunken log2 fold change?
Reply: yes

Query: Does shrunken log2 fold change meet or surpass -0.2 for `RRIRVRPPRLPRPRPRPWNIPRP` ?
Reply: no

Query: Could you tell me if the measured shrunken log2 fold change of `RRIRPRPPRLPRPRPRPYSAPRP` reaches -0.2 or more?
Reply: no

Query: In plain terms: is recorded shrunken log2 fold change at least -0.2 for `RRIRIRPPRLPRPRPRPEVLPRP` ?
Reply: yes

Query: Identify whether the reported shrunken log2 fold change of the following sequence is -0.2 or greater: `RRIRPRPPRLPRPRPRPRACPRP`
Reply: yes
